assay.summary: growth inhibitors of tim23-1 mutant yeast, primary screen, luminescence, uHTS (AID 463212);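 further: temperature-sensitive mutant grown at 25 °C; plate controls were DMSO-treated mutant yeast for no effect and medium wells lacking yeast for full effect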
condition.summary: S. cerevisiae tim23-1 growth, BacTiter-Glo luminescence, 24 h; at 20 µM
In all, about 330,000 compounds went through this assay and about 4,400 (1.3%) were called active.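 How the source made its calls: active means growth inhibition of the mutant yeast at or above 50%; inactive means the rest.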 This excerpt belongs to a sample that is enriched for actives.
Possible outcomes: active, inactive

• COc1ccc(C(=O)Nc2ccccc2C(=O)N/N=C/c2ccc(O)c(OC)c2)cc1 = active
• COc1ccc(Cn2c(=S)[nH]c3cc(C(=O)NCCCN4CCOCC4)ccc3c2=O)cc1 = inactive
• Cc1nn(C)c(C)c1CN(C(=O)CCc1nnc(Cc2c[nH]c3ccccc23)o1)C(C)C = inactive
• CCCCn1c(=S)[nH]c2ccccc2c1=O = inactive
• Cc1ccc(NS(=O)(=O)c2cn(C)c(=O)n(C)c2=O)c(C)c1 = inactive
• CC1CCCCC1NC(=O)C1CCCN1S(=O)(=O)c1cccc2nsnc12 (stereo not given) = inactive
• CC(=O)Nc1ccc(Nc2cc(C)nc(Nc3ccc(NC(C)=O)cc3)n2)cc1 = inactive
• O=c1c2ccccc2[nH]c(=S)n1CCN1CCC(=C(c2ccc(F)cc2)c2ccc(F)cc2)CC1 = active
• COc1ccc(C(=O)Nc2cc(C)c(NC(=O)c3ccccc3OC)cn2)cc1 = inactive
• COc1ccc(C(=O)Nc2ccccc2C(=O)N/N=C/c2ccccc2OC)cc1 = active

----------
Each record here notes measured inhibition.
assay.summary: growth inhibitors of tim23-1 mutant yeast, primary screen, luminescence, uHTS (AID 463212);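 further: temperature-sensitive mutant grown at 25 °C; plate controls were DMSO-treated mutant yeast for no effect and medium wells lacking yeast for full effect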
condition.summary: S. cerevisiae tim23-1 growth, BacTiter-Glo luminescence, 24 h; at 20 µM; active compounds read high
Out of some 330,000 compounds screened, about 4,400 (1.3%) were called active. The sample holds actives, similar compounds and a random draw of the others, so the mix is not that of the screen.
observed.property: inhibition

* O=C1NC[C@@H](Cc2ccc(O)cc2)N(CCc2cccc(F)c2)C1=O | 11.4% (inactive)
* COC(=O)c1sccc1NC(=O)COc1ccc(Cl)cc1 | 6.02% (inactive)
* COC(C[C@H](O)CC(=O)[C@@H](C)OCc1ccccc1)OC | 8.93% (inactive)
* CCCCC1(C(=O)OCC)NC(c2ccc(O)cc2)C2C(=O)N(c3ccccc3)C(=O)C21 (stereo not given) | 1.2% (inactive)
* COC(=O)c1c(NC(=O)COc2ccc(Cl)cc2Cl)sc2c1CC(C)(C)NC2(C)C | 60.1% (active)
* O=C(Nc1cc(-c2ccccc2)nn1-c1ccccc1F)c1ccc([N+](=O)[O-])cc1 | 18.1% (inactive)
* CCc1ccccc1NC1c2ccccc2C(=O)N1c1cccnc1 (stereo not given) | -9.01% (inactive)
* CCOC(=O)c1c(NC(=O)c2ccc(S(=O)(=O)N(C)CC3CCCO3)cc2)sc2c1CC(C)(C)NC2(C)C (stereo not given) | 24% (inactive)
* Cn1c(Nc2ccccc2)cc(=O)n(C)c1=O | 6.86% (inactive)
* Cc1ccc2cc3cc(C(=O)N4CCCCCC4)oc3nc2c1 | 53.8% (active)

----------
assay.summary: growth inhibitors of tim23-1 mutant yeast, primary screen, luminescence, uHTS (AID 463212);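 further: temperature-sensitive mutant grown at 25 °C; plate controls were DMSO-treated mutant yeast for no effect and medium wells lacking yeast for full effect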
condition.summary: S. cerevisiae tim23-1 growth, BacTiter-Glo luminescence, 24 h; at 20 µM; active compounds read high
The campaign covered roughly 330,000 compounds. About 4,400 (1.3%) were called active. The entries come from a sample that favours actives as a whole.
observed.property: inhibition

* Cc1cc(N2CCOCC2)nc2ccc(NC(=S)N3CCN(Cc4ccccc4)CC3)cc12 | 7.08% (inactive)
* O=C(/C=C/c1ccccc1)c1ccccc1O | 55.8% (active)
* COCCCNc1nc2ccccc2nc1NS(=O)(=O)c1ccc(F)cc1 | 21.6% (inactive)
* Oc1cccc(/C=N/Nc2ccc(Cl)nn2)c1O | 24.4% (inactive)
* COc1ccc(C(=O)COC(=O)c2ccc3ccccc3n2)cc1 | 40.7% (inactive)
* CC1CCCCC1NC(=O)CCS(=O)(=O)c1cccc2nonc12 (stereo not drawn) | 4.3% (inactive)
* O=C(NCCSc1ncc(-c2ccccc2)[nH]1)c1ccco1 | -8.72% (inactive)
* O=C1c2ccccc2C(=O)N1CCC(c1ccccc1)c1ccco1 (stereo not drawn) | 22.6% (inactive)
* COc1ccc(OC)c(NC(=O)CN(Cc2ccc(Cl)cc2)S(C)(=O)=O)c1 | 9.4% (inactive)
* Cn1cccc1C(=O)OCC(=O)c1ccc(Br)s1 | 15.9% (inactive)
* Oc1ccc(Br)cc1/C=N/Nc1ccccn1 | 68% (active)
* NC(=O)COc1ccc(/C=N/NC(=O)C2CCCN2S(=O)(=O)c2ccc(Cl)cc2)cc1 (stereo not drawn) | 4.5% (inactive)
* CCCOc1ccc(CN(CCO)CCO)cc1C(=O)OC | 1.64% (inactive)
* O=C(/C=C/c1ccc(N2CCOCC2)cc1)c1ccccc1 | 35.2% (inactive)
* CC(=O)Nc1ccc(N2C(=O)CC(Sc3nccc(C)n3)C2=O)cc1 (stereo not drawn) | 10.2% (inactive)
* CC(=O)c1c(C)[nH]c(C(=O)CN2C(=O)NC(C)(C)C2=O)c1C | -12.9% (inactive)
* Cc1ccc(C(C[N+](=O)[O-])c2c(C)cc3ccccn23)cc1 (stereo not drawn) | 48.5% (inactive)
* CCc1ccc(C2C(C#N)=C(N)N(N3CCOCC3)C3=C2C(=O)CC(C)(C)C3)s1 (stereo not drawn) | 5.14% (inactive)
* O=C(NNC(=S)NC1CCCCC1)c1ccccc1Cl | 5.3% (inactive)
* CCOc1ccc(CC(=O)NCCS(=O)(=O)N2CCN(c3ccccc3)CC2)cc1 | -7.53% (inactive)
* CCN1C(=O)/C(=C2\SC(N3CCCCC3)=NC2=O)c2ccccc21 | 54.8% (active)
* O=C(Oc1ccc([N+](=O)[O-])cc1)c1ccc2ccccc2n1 | 69.8% (active)
* CCCNC(=S)N1CCC(NC(=O)c2ccc(OC)cc2)CC1 | -9.98% (inactive)
